- assay_target: T1, human BAFFR-his protein (Acro, BAR-HP2H6) (human, UniProt Q96RJ3 7-71, limits assumed)
- T1 construct: Bought protein; not shown: his tag
- T1 sequence: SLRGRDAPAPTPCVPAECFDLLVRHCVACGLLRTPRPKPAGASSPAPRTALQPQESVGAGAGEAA
- assay_name: competition ELISA; plate-coated human BAFFR-his, competitor biotin human BAFF his at 0.2 ug/mL
Consider the following binders; for each one, report its pIC50.
Numbers only, as −log10 of the molar value.

Req: Specify reported pIC50 for the binder shown: NB467-35 (Fc fusion, also called nanobody NB467-35; anti-BAFFR nanobody; not shown: Human IgG1 Fc fused to the VHH) QVQLVESGGGLVQPGGSLRLSCAASGFSLEYYAIGWFRQTPGKEREAISCIDSPAKSTYYADSVKGRFTISRDNSKNTVYLQMNSLKAEDTAVYYCAADVYYRGSYLYRSCNPTESKYWGQGTQVTVSS
Resp: 8.29

List the reported pIC50 of each binder below.
1. NB467-55 (Fc fusion, also called nanobody NB467-55; anti-BAFFR nanobody; not shown: Human IgG1 Fc fused to the VHH) EVQVVESGGDLVQPGGSLKLSCQASGFSLTYYAIGWFRQAPGKEREEISCISGDGGMTYYADPVKGRFTISRDNGRNTVYLQMNSLKPEDTAVYYCAADVYYNGNYYSRSCNPAESKYWGQGTQVTVSA
2. NB467-8 (Fc fusion, also called nanobody NB467-8; anti-BAFFR nanobody; not shown: Human IgG1 Fc fused to the VHH) QVQLVESGGGLVQPGGSLRLSCAASGFSLEYYAIGWFRHIPGKEREAVSCISSPGDSTWYVDSVKGRFTISRDNAKNTVYLQMNSLKPEDTAVYHCAADVYYSGSYLSRSCNPHESKYWGQGTQVTVSS
3. NB467-46 (Fc fusion, also called nanobody NB467-46; anti-BAFFR nanobody; not shown: Human IgG1 Fc fused to the VHH) EVQVVESGGGLVQPGGSLRLSCAASGFSLTYYAIGWFRQAPGKEREGVACISGGGDQLYYTDSVKGRFTISRDNAKNTVYLHMNSLKPEDTAVYYCAADVYYSGSYNYRSCNPAESKYWGQGTQVTVSS

Resp:
[7.39, 7.52, 7.52]
